target: Chaperone SurA (Escherichia coli (strain K12)) (UniProt P0ABZ6); assay: Inhibition of rhodamine-WEYIPNV binding to Escherichia coli SurA up to 2.5 uM by fluorescence anisotropy
Sequence (P0ABZ6 whole entry): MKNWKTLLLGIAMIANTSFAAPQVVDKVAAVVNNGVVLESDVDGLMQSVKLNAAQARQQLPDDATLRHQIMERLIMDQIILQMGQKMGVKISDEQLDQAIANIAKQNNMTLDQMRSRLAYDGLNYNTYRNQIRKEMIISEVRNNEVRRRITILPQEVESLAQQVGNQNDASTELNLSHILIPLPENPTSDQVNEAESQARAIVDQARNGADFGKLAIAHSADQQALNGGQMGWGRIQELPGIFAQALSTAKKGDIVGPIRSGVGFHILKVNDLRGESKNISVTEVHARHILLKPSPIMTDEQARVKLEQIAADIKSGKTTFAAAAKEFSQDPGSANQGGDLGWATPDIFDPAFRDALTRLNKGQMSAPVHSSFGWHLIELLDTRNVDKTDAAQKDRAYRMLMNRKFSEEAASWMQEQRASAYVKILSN
The source made the active and inactive calls. The rule behind the calls is not given here.
MEASURED_METRIC: inhibition

Recorded results for 4 compounds are shown here.
- O=C1OC2(c3ccc(O)cc3Oc3cc(O)ccc32)c2ccc(N3C(=O)C=CC3=O)cc21: inactive
- CC[C@H](C)[C@H](NC(=O)OCC1c2ccccc2-c2ccccc21)C(=O)O: inactive
- O=C(O)CCNC(=O)OCC1c2ccccc2-c2ccccc21: inactive
- O=C(N[C@@H](Cc1ccc(O)cc1)C(=O)O)OCC1c2ccccc2-c2ccccc21: inactive

Would you kindly look at the next entry?
Task: Could you share which inhibition value was measured for C[C@H](NC(=O)OCC1c2ccccc2-c2ccccc21)C(=O)O ?
Result: inactive

Data credit: ChEMBL document CHEMBL4265987
